# credit: patent US11110138B2

- Assay Notes: in vitro
- Run Conditions: African green monkey
Endpoint Label: viability

For reference, reported viability for CS(=O)(=O)OCCCCOS(C)(=O)=O [busulfan] stands at ~82%
